- MEASURED ON: Human HDAC4 (Homo sapiens, UniProt P56524)
- Construct: Amino acids 627-1085 with N-terminal GST tag, MW=75.2 kDa; GST (N); purchased BioMol, Hamburg, Germany; host or cells: baculovirus expression system
- Sequence (P56524 627-1084 limits assumed): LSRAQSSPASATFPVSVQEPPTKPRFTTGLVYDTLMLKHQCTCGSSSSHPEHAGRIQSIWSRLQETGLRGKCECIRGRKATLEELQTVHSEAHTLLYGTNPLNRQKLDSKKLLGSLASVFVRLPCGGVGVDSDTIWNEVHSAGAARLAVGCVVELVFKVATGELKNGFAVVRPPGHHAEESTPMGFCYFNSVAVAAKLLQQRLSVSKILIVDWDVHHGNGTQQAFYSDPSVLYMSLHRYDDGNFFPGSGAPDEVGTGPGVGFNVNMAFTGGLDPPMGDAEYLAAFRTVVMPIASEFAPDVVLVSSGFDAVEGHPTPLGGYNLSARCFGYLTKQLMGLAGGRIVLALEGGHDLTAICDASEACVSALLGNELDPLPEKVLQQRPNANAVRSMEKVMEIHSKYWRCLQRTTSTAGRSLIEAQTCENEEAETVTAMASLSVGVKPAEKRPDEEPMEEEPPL
- ASSAY EXPLANATION: In vitro HDAC4 inhibition, fluorogenic substrate
- Format: biochemical
- CONDITION DETAILS: read-out: IC50 (μM) HDAC-4
Property: IC50; scope: individual molecules

Look over these answered cases.
O=C(CCCCCNc1c2c(nc3ccccc13)CCCC2)NO    6.19 µM
O=C(CCCCCCNc1c2c(nc3cnccc13)CCCC2)NO    > 5 µM
O=C(CCCCCCNc1c2c(nc3ncccc13)CCCC2)NO    > 5 µM

Problem: Look at this molecule and give its reported IC50. O=C(CCCCCNC(=O)c1c2c(nc3ccccc13)CCCC2)NO
Result: > 5 µM

Problem: Suppose we examine the molecule O=C(CCCCCCNC(=O)c1c2c(nc3ccccc13)CCCC2)NO ; what IC50 value has been reported?
Result: > 5 µM

###

Property: IC50; scope: individual compounds
- MEASURED ON: Human HDAC1 (Homo sapiens)
- Construct: Full length with C-terminal GST tag, MW=79.9 kDa; GST (C); purchased BioMol SE-456; host or cells: baculovirus / Sf9 cells
- ASSAY EXPLANATION: In vitro HDAC1 inhibition, fluorogenic peptide substrate
- Format: biochemical
- CONDITION DETAILS: No preincubation; read-out: IC50 (μM) HDAC-1

Worked examples, 2 compounds total:
Cc1ccc(NC(=O)CCCCCCNc2c3c(nc4ccccc24)CCCC3)c(N)c1    > 50 µM
CC(C)(C)c1ccc(N)c(NC(=O)CCCCCCNc2c3c(nc4ccccc24)CCCC3)c1    > 50 µM

Proceed to the following item.
Problem: What value of IC50 on Human HDAC1 (Homo sapiens) does Nc1ccc(-c2ccc3ccccc3c2)cc1NC(=O)CCCCCCNc1c2c(nc3ccccc13)CCCC2 have?
Result: > 50 µM

###

- MEASURED ON: Human HDAC1 (Homo sapiens, UniProt Q13547)
- Construct: Full length with C-terminal GST tag, MW=79.9 kDa; GST (C); purchased BioMol SE-456; host or cells: baculovirus / Sf9 cells
- Sequence (Q13547 whole entry): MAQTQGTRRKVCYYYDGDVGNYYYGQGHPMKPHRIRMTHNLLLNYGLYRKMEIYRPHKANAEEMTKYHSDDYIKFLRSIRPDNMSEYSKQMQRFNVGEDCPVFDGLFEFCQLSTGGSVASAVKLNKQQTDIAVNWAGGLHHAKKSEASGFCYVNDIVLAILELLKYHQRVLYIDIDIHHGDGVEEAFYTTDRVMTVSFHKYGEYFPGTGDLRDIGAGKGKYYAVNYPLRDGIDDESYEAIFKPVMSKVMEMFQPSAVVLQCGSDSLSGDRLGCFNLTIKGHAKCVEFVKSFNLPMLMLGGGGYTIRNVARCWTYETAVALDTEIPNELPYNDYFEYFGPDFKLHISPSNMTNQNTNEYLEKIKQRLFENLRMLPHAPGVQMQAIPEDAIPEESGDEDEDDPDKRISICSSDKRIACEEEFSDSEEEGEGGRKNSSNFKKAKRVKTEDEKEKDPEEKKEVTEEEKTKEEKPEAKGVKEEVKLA
- ASSAY EXPLANATION: In vitro HDAC1 inhibition, fluorogenic peptide substrate
- Assay type: biochemical
- CONDITION DETAILS: 4 h preincubation; read-out: IC50 (μM) HDAC-1
// reported IC50 for each item listed

Cc1ccc(N)c(NC(=O)CCCCCCNc2c3c(nc4ccccc24)CCCC3)c1    > 50 µM
CC(C)(C)c1ccc(N)c(NC(=O)CCCCCCNc2c3c(nc4ccccc24)CCCC3)c1    > 50 µM
Cc1cccc(-c2ccc(N)c(NC(=O)CCCCCCNc3c4c(nc5ccccc35)CCCC4)c2)c1    118 µM

Turning to the following molecule.
Problem: Can you look up the measured IC50 of Nc1ncc(-c2ccccc2)cc1NC(=O)CCCCCCNc1c2c(nc3ccccc13)CCCC2 for me?
Result: > 50 µM
